Origin of measurements: patent US20170129921A1

target: T1, Human C5a receptor 2 (human, UniProt Q9P296 1-337); assay: 125I-C5a displacement, SPA on Flp-In CHO-C5a2 membranes
T1 construct: whole, on cells; also used here for native C5a2 on human monocyte derived macrophages and for the human C5a2 of the DiscoveRx PathHunter kit; also called C5a2; C5L2
T1 sequence (Q9P296 whole entry): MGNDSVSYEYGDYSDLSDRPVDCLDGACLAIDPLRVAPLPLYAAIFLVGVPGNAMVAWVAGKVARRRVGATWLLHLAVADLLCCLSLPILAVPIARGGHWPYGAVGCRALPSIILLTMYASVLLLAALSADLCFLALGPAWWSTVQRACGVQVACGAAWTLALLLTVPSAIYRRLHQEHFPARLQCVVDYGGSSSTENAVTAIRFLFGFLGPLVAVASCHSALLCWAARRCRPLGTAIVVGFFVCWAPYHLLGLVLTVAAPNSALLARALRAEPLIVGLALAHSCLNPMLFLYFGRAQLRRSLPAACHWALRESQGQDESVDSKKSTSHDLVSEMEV
Reported Ki values follow for various binders
Give the value in µM but do not write µM after it.

Solved entries:
Ac-LIRLWR-OH (Synthetic, computationally designed hexapeptide based on the C-terminus of C5a) [Peptide P59, Ac-LIRLWR-OH]
48
Human recombinant C5a (ligand, UniProt P01031 678-751, looked up, also called native C5a) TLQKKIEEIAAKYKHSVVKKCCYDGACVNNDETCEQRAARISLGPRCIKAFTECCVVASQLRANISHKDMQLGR
0.0013

Name the reported Ki value associated with the binder Ac-RHYPYWR-OH (Synthetic, computationally designed heptapeptide based on the C-terminus of C5a) [Peptide P32, Ac-RHYPYWR-OH]
223
